system: MS2 coat protein; experiment: apparent KD of MS2 coat protein; designed switch direction (-1 OFF switch, 1 ON switch): -1; higher = weaker reporter binding; conditions: input ligand: none
Overview of reported apparent KD of MS2 coat protein across a group of sequences:
Kindly provide the numeric value in nM only, without the unit symbol.

Answered examples (2):
[[record]]
record_sequence = "CGUCUGUAAGGAUAUGGUUACAUAGACAUGAGGAUCACCCAUGUUACGUGGGACUAGUGAUUAGAAGGUACGAACG [EX5 #67] (Eterna round: R97, puzzle: Exclusion 5)"
readout_number = 51.2

[[record]]
record_sequence = "UGAGUGCUGCGAGGAUAUACAUGAGGAUCACCCAUGUAAUCGUCUGAGGCAAAGCCUCAGACGAAGUAGAAGGCGCAGUACUCU [Mat - Exclusion NG 2 - Mod of JL - D26] (Eterna round: R96, puzzle: Exclusion NG 2)"
readout_number = 17.2


Returns the measured apparent KD of MS2 coat protein for the input sequence. Input: GAGCCAACAGGAUAUACAUGAGGAUCACCCAUGUGAAUUCGCUACACAGGGAUGAACAGUAGAAGGGUUGGUAU [Eternabot (Original) Solution 49] (Eterna round: R97, puzzle: Exclusion 3)
229

---

test system: K4 kissing-loop RNA reporter; experiment: apparent KD of K4 kissing-loop reporter; higher = weaker reporter binding; conditions: Eterna round: R107; input ligand: tryptophan 2.4 mM;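 also: bound reporter read as fluorescence of individual clusters on recovered sequencing chips by microscopy, with normalized cluster intensities fitted with a binding model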
experimental_readout: apparent KD of K4 kissing-loop reporter (nM)
Write down the numeric answer in nM and omit the unit.

Worked cases, apparent KD of K4 kissing-loop reporter given:
[[record]]
record_sequence = "AAGCAGUCAGGAUCGAAGAUCCUGCAAUACCGAGGACCGGUACGGCCGCCACUCGGAGUGAUGUUCCGAAGACUGCAAAAUAAAA [#SwitchBubble 7]"
unit_label = "nM"
readout_number = 152

[[record]]
record_sequence = "GUAUGUGGAAACACGUACUUAUAUCCUCGACAGGAUAUGCGGAAACGCAGAAGGGUCGCCAACGAGUUUAUCCAGUGAUGUUGGA [Ex FMN A 15]"
unit_label = "nM"
readout_number = 350

[[record]]
record_sequence = "UAGUCCUAGUGAUCGUUAUCACGUGGUGGGCGAGGACCGGUACGGCCGCCACUCGACUAUGCAGUGAUGUUGCAAUCCGGACAAU [Exclusion - Tryptophan A (Freestyle 15)]"
unit_label = "nM"
readout_number = 145

[[record]]
record_sequence = "GCACUACAAUAAGGAUAUCAUAAAAUGGAGAGCGAGUGAUGUUCGCAGAGACACCUAUUUUUCCUAUGAGAAGGUAUUAACGCCG [theeternabot_sameState_KL_FMN_B_40]"
unit_label = "nM"
readout_number = 93.2

[[record]]
record_sequence = "AAAUUUAUAUUAGAUACCAGUUUAAUGGAUGUAAAUUAUGACAUGAGUGAUGUUCAUGUAAGCCCUUGGCAGCUGGUAUGGGUUU [KL-XTheo-B21]"
unit_label = "nM"
readout_number = 115


Now take the following sequence into account.
Given the sequence AAGUACACGAUAGUGUACACCUAGUGAUGUUAGGAUAUGCAGAUAUGCAGAAGGAACAAGUCAUCUGACAAUAGUCGGAUGACAA [FmnAX 6 #OpenEnded #K4Early] , what is its reported apparent KD of K4 kissing-loop reporter?
98

---

system: MS2 coat protein; assay: apparent KD of MS2 coat protein; designed switch direction (-1 OFF switch, 1 ON switch): -1; higher = weaker reporter binding; conditions: input ligand: microRNA oligo, concentration not stated
experimental_readout: apparent KD of MS2 coat protein (nM)
Lab book: enter the figure in nM, no units written.

Consider the worked cases shown below.
[[record]]
record_sequence = "AAAGUGGGCCAGAACAUGAGGAUCACCCAUGUCUGAAAUAGCAAGGAUAUUACGAGCAAAAGGAGUAAGAAGGUGCACAGUACG [Eternabot solution 41] (Eterna round: R96, puzzle: Exclusion NG 3)"
experimental_target = "MS2 coat protein"
readout_number = 15.4

[[record]]
record_sequence = "CUUUGGUCAGGAUAUGGUGGGCUGGUCGCGCGGCCGGGUGGCCAGAAGGGACAUGAGGAUCACCCAUGUACGGC [excls4-X] (Eterna round: R96, puzzle: Exclusion 4)"
experimental_target = "MS2 coat protein"
readout_number = 53

[[record]]
record_sequence = "ACCAAUCAUGUAGGAUAUGCGUGGCGAAGCUAUGCAGAAGGACAUGAGGAUCACCCAUGUGCUUCCGUCUGCGUACAGACGGUA [Mat - Exclusion NG 1 - Mod of JL - D17] (Eterna round: R96, puzzle: Exclusion NG 1)"
experimental_target = "MS2 coat protein"
readout_number = 38.3


Kindly review the next sequence as well.
Lab note: need apparent KD of MS2 coat protein for UUCUAACGAGGAUAUCGAUGGUGGAACAUGAGGAUCACCCAUGUAUGAGAUAUUGUAGUUCGAGAAGGCGUUCAGU [JR_E5_Sub057] (Eterna round: R96, puzzle: Exclusion 5) on MS2 coat protein, anyone have it?
32.3
